# maps each entry to its binding affinity ratio
target desc: HLA-A*0201 (human)
assay method text: competitive inhibition of 125I-labelled standard peptide binding to purified HLA, gel filtration; ratio = IC50 standard / IC50 test peptide
Please give the numeric answer without any surrounding text.

{"binder": "VLSIALSVGCT (modifications not checked) [… (Kallikrein, position 5)]", "quantity": "binding affinity ratio", "quantitative readout": 0.0002}
{"binder": "VLRMMNDQL (modifications not checked) [… (PSM, position 660)]", "quantity": "binding affinity ratio", "quantitative readout": 0.0001}
{"binder": "VAVYSHGWA (modifications not checked) [… (Kallikrein, position 40)]", "quantity": "binding affinity ratio", "quantitative readout": -0.0001}

Query (binder): VIGTLRGAV (modifications not checked) [… (PSM, position 358)] ; field requested: binding affinity ratio
0.0002
